Entries and their IC50 values follow.
Target: CCR5 (Homo sapiens (Human), UniProt P51681)
Sequence (P51681 whole entry): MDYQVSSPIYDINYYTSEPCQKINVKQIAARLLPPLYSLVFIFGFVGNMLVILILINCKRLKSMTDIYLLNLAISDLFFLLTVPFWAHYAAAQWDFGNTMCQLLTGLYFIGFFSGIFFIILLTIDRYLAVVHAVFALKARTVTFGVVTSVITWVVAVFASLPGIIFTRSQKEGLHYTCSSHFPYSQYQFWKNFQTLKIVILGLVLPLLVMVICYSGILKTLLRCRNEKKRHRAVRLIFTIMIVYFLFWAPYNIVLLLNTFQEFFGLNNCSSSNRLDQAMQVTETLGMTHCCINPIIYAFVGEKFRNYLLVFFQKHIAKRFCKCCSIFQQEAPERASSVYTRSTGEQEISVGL
Test: Calcium flux inhibition experiment
Assay type: cell-based
Settings: HEK293/CCR5-Gα16 cell line, calcium flux; read-out: CCR5 IC50

// solved cases for IC50 follow
Cc1ccc([C@H](CCN2C3CCC2CC(n2c(C)nnc2C(C)C)C3)NC(=O)Cc2nnn[nH]2)s1 (some centres unmarked)	8.76 nM
CC(=O)N[C@@H](CCN1C2CCC1CC(n1c(C)nc3c1CCN(C(=O)C1CC1)C3)C2)c1ccc(Cl)s1 (some centres unmarked)	18.5 nM
CCCC(=O)N1CCc2c(nc(C)n2C2CC3CCC(C2)N3CC[C@H](NC(C)=O)c2ccc(Cl)s2)C1 (some centres unmarked)	17.5 nM
Cc1nnc(C(C)C)n1C1CCN(CC[C@H](NC(=O)C2CCCCC2)c2cccs2)CC1	9.22 nM

-- ask Which IC50 value is on record for CC(=O)N[C@@H](CCN1C2CCC1CC(n1c(C)nc3c1CCN(C(=O)C(C)C)C3)C2)c1ccc(F)s1 (some centres unmarked) ?
-- reply 8.28 nM
